test: yeast display, Sf9 membrane polyspecificity reagent, FACS + sequencing; frameworks hold sequencing errors
endpoint name: polyreactivity (PSR sort gate)

As a guide, the following entries are already answered.
residue codes	polyreactivity (PSR sort gate)
QVQLVESGGGLVQAGGSLRLSCAASGSIFIGYAMGWYRQSPGKERELVAAINDSGDRTYYADSVKGRFTISRDNAKNTVYLQMNSLKPEDTAVYYCAADLVSLDPEYDYWGQGTQVTVSS	low polyreactivity
QVQLVESGGGLVQAGGSLRLSCAASGGIFVFYAMGWYRQAPGKERELVAAITYRGGSTSYADSVKRRFTISRDNAKNTVYLQMNSLKPEDTAVYYCNARRRTWYGFYYWGQGTQVTVSS	high polyreactivity
QVQLVESGGGLVQAGGSLRLSCAASGRIFYDYDMGWYRQAPGKERELVAAISYGGGTTYYADSVKGRFTISRDNAKNTVYLQMTSLKPEDTAVYYCAAEYASGSYDEYDYWGQGTQVTVSS	low polyreactivity
QVQLVESGGGLVQAGGSLRLSCAASGRIFAQYAMGWYRQAPGKERELVADISSGVRTNADSVKGRFTISRDNAKNSVYLQMNSLKPEDTAVSYCNAYYIIFTRNDYWGQGTQVTVSS	low polyreactivity
QVQLVESRVGLVQAGGSLRLSCAASGIIFTLYAMGWYRQAPGKERELVAGIDASGGSTSYADSVKGRFTISRDNAKNTVYLQMNSLKPEVTAVYYCAARILPYGYDYWGQGTQVTVSS	low polyreactivity

Moving on to the next sequence.
Item under review: HVQLVESGGGLVQAGGSLRLICAASGFIFRFNAMGWYRQAPGKERELVAAISGSGGITYYADSVKGRFTISRDNAKNTVYLQMNSLKPEDTAVYYCAARPLFGWRGYNYWGQGTQVTVSS . Reported polyreactivity (PSR sort gate)?
high polyreactivity
